Attribution: the supplement of paper PMC7877785

- experiment description: self-splicing fitness, log relative to wild type (ln ratio); higher = more splicing; Tetrahymena group I intron in knt gene, E. coli kanamycin selection, DiMSum; sequences stand for … in CUCUCU…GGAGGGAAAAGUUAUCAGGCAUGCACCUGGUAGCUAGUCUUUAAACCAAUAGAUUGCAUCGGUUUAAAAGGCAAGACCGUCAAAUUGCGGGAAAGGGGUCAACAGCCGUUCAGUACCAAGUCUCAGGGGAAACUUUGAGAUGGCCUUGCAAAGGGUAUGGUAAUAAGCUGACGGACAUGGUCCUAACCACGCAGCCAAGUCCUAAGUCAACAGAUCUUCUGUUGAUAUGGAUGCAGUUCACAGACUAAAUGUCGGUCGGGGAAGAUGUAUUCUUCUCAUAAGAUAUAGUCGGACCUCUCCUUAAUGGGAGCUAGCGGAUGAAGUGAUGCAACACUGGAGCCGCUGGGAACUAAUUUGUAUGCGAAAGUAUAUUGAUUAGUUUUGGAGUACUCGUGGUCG;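 further: selection with 25 µg/mL kanamycin versus none on LB agar overnight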
- details: 37 °C
// class assignment uses self-splicing fitness (ln) with these ranges: low: < -2; moderate: ≥ -2 and < -0.7; high: ≥ -0.7

UCAGAGCAAUAUUACGUGCU : low
CAACAGCAAUAUUACGAAGC : low
UUCAAGCAAUAUUACGGAGC : moderate
GUACAGCAAUAUUACGCCCU : high

Input line: Which self-splicing fitness (ln) band matches GAGCAGCAAUAUUACGCUAU ?
Output line: moderate

Input line: Exercise: read the entry CGGUAGCAAUAUUACGAAAG and state which class it falls under.
Output line: high

Input line: Dear colleague, I would appreciate it if you could identify the bin for GCUAAGCAAUAUUACGCAUC and reply at your convenience.
Output line: moderate

Input line: Each sequence maps to one class by self-splicing fitness (ln). Which class for UUCAAGCAAUAUUACGAGUC ?
Output line: moderate

Input line: Form field 'band' for GGGUAGCAAUAUUACGGUGA
Output line: high

Input line: Hey, which category is UGCGAGCAAUAUUACGGCCU in, do you know?
Output line: moderate

Input line: Sort ACUCAGCAAUAUUACGGACU into one of the categories.
Output line: high
